B1: HDV Ribozyme (parent)
chain: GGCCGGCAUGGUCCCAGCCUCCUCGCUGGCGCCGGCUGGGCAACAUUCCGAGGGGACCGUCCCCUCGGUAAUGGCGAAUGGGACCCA

variants of: B1; experiment: self-cleavage, relative activity (ratio to wild type); higher = more cleavage; co-transcriptional
Would you please tag the item Met when its self-cleavage is 0.6 or above, and Not met when it is below?

sequence_text="GGCCGGCAUGGUCCCAGCCUCCUCGCUAGCGCCGGCUAGGCAACAUUCCGAGGGGACCGUCCCCUCGGUAAUGGCGAAUGGGACCCA [G28A G38A]" assigned_category="Not met"
sequence_text="GGCCGGCAUGGUCCCAGCCUCCUCGCUGGCGCCGGCUAGGCAACAUUCCGACGGGACCGUCCCCUCGGUAAUGGCGAAUGGGACCCA [G38A G52C]" assigned_category="Not met"
sequence_text="GGCCGGCAUGGUCCCAGCCUCCUCACUGGCCCCGGCUGGGCAACAUUCCGAGGGGACCGUCCCCUCGGUAAUGGCGAAUGGGACCCA [G25A G31C]" assigned_category="Not met"
sequence_text="GGCCGGCAUGGUCCCAGCCUCCUCGCUGGCGCCGGCUGGGCAACAUUCCGAAGGGACCGUCGCCUCGGUAAUGGCGAAUGGGACCCA [G52A C62G]" assigned_category="Not met"
sequence_text="GGCCGGCAUGGUCCCAGCCUCCUCGCUGGCGCCGGCUGGGCAACAUUCCGAGGGGACCGUCCCCUCGGGAGUGGCGAAUGGGACCCA [U69G A71G]" assigned_category=Met
sequence_text="GGCCGGCAUGGUCCCAGCCUCCUCGGUGGCGCCAGCUGGGCAACAUUCCGAGGGGACCGUCCCCUCGGUAAUGGCGAAUGGGACCCA [C26G G34A]" assigned_category="Not met"
sequence_text="GGCCGGCAUGGUCCCAGCCUCCUCGCUGGGGCCGGCUGGGCAACAUUCCGAGGGAACCGUCCCCUCGGUAAUGGCGAAUGGGACCCA [C30G G55A]" assigned_category="Not met"
sequence_text="GGCCGGCAUGGUCCCAGACUCCUCGCUGGCGCCGGCUGGGCCACAUUCCGAGGGGACCGUCCCCUCGGUAAUGGCGAAUGGGACCCA [C18A A42C]" assigned_category="Not met"
sequence_text="GGCCGGCAUGGUCUCAGCCUCCUCGCUGGCGCCGGCUGGGCAACAUUCCGAGGGCACCGUCCCCUCGGUAAUGGCGAAUGGGACCCA [C14U G55C]" assigned_category=Met
sequence_text="GGCCGGCAUGGUCCCAGCCUCCUCGCUGGCGCCGGCCGGGCAACAUUCCGAGGGGACCGUCCCCUCGGUAAUGGCGAAUGGGACCAA [U37C C86A]" assigned_category=Met
sequence_text="GGCCGGCAUGGUCCCAGCCUCCUCGCUGGCGCCGGCUGGGCAACAUUCCGAGGAGACCGUCCCCUCGGUAAUGGCGAAUGGGACUCA [G54A C85U]" assigned_category=Met
sequence_text="GGCCGGCAUGGUCCCAGCCUCCUCGCUGGCGCCGGCUGGGCAACAUUCCGAGGGGACCGUCCCCUCGGUAAUGUCGAAAGGGACCCA [G74U U79A]" assigned_category="Not met"
sequence_text="GGCCGGCAUGGUCCCAGCCUCCUCGCUGGCGCCGGCUGGGCAACAUUCCGACGGGGCCGUCCCCUCGGUAAUGGCGAAUGGGACCCA [G52C A56G]" assigned_category=Met
sequence_text="GGCCGGCAUGGUCCCAGCCUCAUCGCUGGCGCCGGCUAGGCAACAUUCCGAGGGGACCGUCCCCUCGGUAAUGGCGAAUGGGACCCA [C22A G38A]" assigned_category="Not met"
sequence_text="GGCCGGCAUGGUGCCAGCCUCCUCGCUCGCGCCGGCUGGGCAACAUUCCGAGGGGACCGUCCCCUCGGUAAUGGCGAAUGGGACCCA [C13G G28C]" assigned_category="Not met"
sequence_text="GGCCGGCAUCGUCCCAGCCUCCUCGCUGGCGCCGGCUGGGCAACAUUCCGAGGGGACCGUCUCCUCGGUAAUGGCGAAUGGGACCCA [G10C C62U]" assigned_category=Met
sequence_text="GGCCGGCAUGGUCCCAGCCUCCUCGCUGGCGCCGGCUGGGCAACAUUCCGAGGGUACCGUCUCCUCGGUAAUGGCGAAUGGGACCCA [G55U C62U]" assigned_category=Met
sequence_text="GGCCGGCAUGGUCCCAGCCUCCUCGCUGGCGCCGGCUGGGCAACCUUCCGAGGGGACCGUCCCCUCGGUAAUGGCGAAUGGGUCCCA [A45C A83U]" assigned_category="Not met"
sequence_text="GGCCGGCAUGGUCCCAGCCUCCUCGCUGGCGCCGGCUGGGCAACAUUCCGAGGGGAUCGUCCCCUCGGUAAUGGUGAAUGGGACCCA [C57U C75U]" assigned_category="Not met"
sequence_text="GGCCGUCAUGGUCCCAGCCGCCUCGCUGGCGCCGGCUGGGCAACAUUCCGAGGGGACCGUCCCCUCGGUAAUGGCGAAUGGGACCCA [G6U U20G]" assigned_category="Not met"
sequence_text="GGCCGGCAUGGUCCCAGCCUUCUCGCUGGCGCUGGCUGGGCAACAUUCCGAGGGGACCGUCCCCUCGGUAAUGGCGAAUGGGACCCA [C21U C33U]" assigned_category="Not met"
